Overview of recorded OD450 nm for various binders
- system: T1, human MSLN-hFc protein (Acro, Cat. No. MSN-H5253) (human, UniProt Q13421 296-580)
- T1 construct: bought protein; also called human MSLN full-length protein; not shown: human Fc (hFc) of the bought protein
- T1 sequence (Q13421 other isoform, or with tags, fused parts or gaps limits assumed): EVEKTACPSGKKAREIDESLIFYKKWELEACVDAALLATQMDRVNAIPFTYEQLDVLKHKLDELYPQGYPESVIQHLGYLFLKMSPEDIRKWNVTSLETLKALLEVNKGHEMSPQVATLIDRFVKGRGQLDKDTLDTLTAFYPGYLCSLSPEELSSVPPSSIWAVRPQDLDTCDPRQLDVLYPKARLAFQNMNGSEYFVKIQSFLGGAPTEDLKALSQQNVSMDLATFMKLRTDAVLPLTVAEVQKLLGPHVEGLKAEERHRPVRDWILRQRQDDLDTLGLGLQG
- measurement_notes: ELISA, coated human MSLN-hFc, antibody 0.01 nM

binder | OD450 nm
F2.23.12-H4 (scFv, not shown: small tags and cut ends, also called S009-F2.23.12 humanized VH1 + VL4) scFv: EVQLVQSGAEVKKPGASVKVSCKASGYTFTNYWMHWVRQAPGQGLEWMGNINPSNGGPYYNERFRSRVTMTVDKSTSTVYMELSSLRSEDTAVYYCARPYYGSSYGYFDYWGQGTTVTVSSGGGGSGGGGSGGGGSDIQMTQSPSSLSASVGDRVTITCKASQDINKYIAWYQHKPGKAPKLLIHYTSELQPGVPSRFSGSGSGRDYTFTISSLQPEDIATYYCLQYANPLRTFGGGTKVEIK | 0.09
F2.23.12-H13 (scFv, not shown: small tags and cut ends, also called S009-F2.23.12 humanized VH4 + VL1) scFv: EVQLVQSGAEVKKPGASVKVSCKASGYTFTNYWMHWVRQAPGQGLEWMGNINPSQGGPYYNERFRSRVTMTVDKSTSTAYMELSSLRSEDTAVYYCARPYYGSSYGYFDYWGQGTTVTVSSGGGGSGGGGSGGGGSDIQMTQSPSSLSASVGDRVTITCKASQDINKYIAWYQQKPGKAPKLLIHYTSELQPGVPSRFSGSGSGTDFTFTISSLQPEDIATYYCLQYANPLRTFGGGTKVEIK | 0.07
F2.23.12-H8 (scFv, not shown: small tags and cut ends, also called S009-F2.23.12 humanized VH2 + VL4) scFv: EVQLVQSGAEVKKPGASVKVSCKASGYTFTNYWMHWVRQAPGQGLEWMGNINPSNGGPYYNERFRSRVTMTVDKSTSTAYMELSSLRSEDTAVYYCARPYYGSSYGYFDYWGQGTTVTVSSGGGGSGGGGSGGGGSDIQMTQSPSSLSASVGDRVTITCKASQDINKYIAWYQHKPGKAPKLLIHYTSELQPGVPSRFSGSGSGRDYTFTISSLQPEDIATYYCLQYANPLRTFGGGTKVEIK | 0.07

All figures here come from patent US20250250357A1.
